Data credit: patent US12310975B2

target: BCL6 (Homo sapiens (Human), UniProt P41182); assay: Immunofluorescence high content imaging of BCL6 degradation in T47D cells; assay type: cell-based; conditions: T47D, maximum, class symbols A-C
Parameter: Dmax. Scope: all listed entries.

These recorded examples may help you get a feel for the data.
[[record]]
molecule = "CC(=O)COc1cc2cc(Nc3nc(N4CCC(CN5CCN(c6ccc7c(c6)CN(C6CCC(=O)NC6=O)C7=O)CC5)CC4)ncc3Cl)ccc2n(C)c1=O (stereo not shown)"
metric_name = "Dmax"
meas_value = "50 to 70%"

[[record]]
molecule = "CC(=O)COc1cc2cc(Nc3nc(C#CC4CCCN(Cc5ccc6c(c5)C(=O)N(C5CCC(=O)NC5=O)C6=O)C4)ncc3Cl)ccc2n(C)c1=O (stereo not shown)"
metric_name = "Dmax"
meas_value = "< 50%"

[[record]]
molecule = "CC(=O)COc1cc2cc(Nc3nc(N4CCC(N(C)C5CCN(c6ccc7c(c6)C(=O)N(C6CCC(=O)NC6=O)C7=O)CC5)CC4)ncc3Cl)ccc2n(C)c1=O (stereo not shown)"
metric_name = "Dmax"
meas_value = "50 to 70%"


// switching to the query molecule
Just so you know, measured Dmax for CNC(=O)COc1cc2cc(Nc3nc(N4CCC(OCCCCOc5cc(-c6scnc6C)ccc5CNC(=O)[C@@H]5C[C@@H](O)CN5C(=O)C(c5cc(C)no5)C(C)C)CC4)ncc3Cl)ccc2n(C)c1=O (stereo partly shown) came out at < 50%
